Hey, just so you know, these numbers are from ChEMBL document CHEMBL3351422.

- Protocol text: Clearance in monkey at 0.25 mg/kg, iv and 2.5 mg/kg, po
- Assay type: ADME, organism-based, Macaca mulatta
- Cond: rhesus monkey, in vivo
Endpoint: clearance (mL/min/kg)

>>> df
                               given_smiles   endpoint  measured_value
0  CCOC(=O)N1CCC(CN2CCC3(CC2)CN(C(=O)N(C)C)c2ncccc23)CC1.O=C(O)/C=C/C(=O)O  clearance            16.5

* * *

Collected Activity values appear next to each entry.
- Tested on: Muscarinic acetylcholine receptor M1 (Homo sapiens) (UniProt P11229)
- Sequence (P11229 whole entry): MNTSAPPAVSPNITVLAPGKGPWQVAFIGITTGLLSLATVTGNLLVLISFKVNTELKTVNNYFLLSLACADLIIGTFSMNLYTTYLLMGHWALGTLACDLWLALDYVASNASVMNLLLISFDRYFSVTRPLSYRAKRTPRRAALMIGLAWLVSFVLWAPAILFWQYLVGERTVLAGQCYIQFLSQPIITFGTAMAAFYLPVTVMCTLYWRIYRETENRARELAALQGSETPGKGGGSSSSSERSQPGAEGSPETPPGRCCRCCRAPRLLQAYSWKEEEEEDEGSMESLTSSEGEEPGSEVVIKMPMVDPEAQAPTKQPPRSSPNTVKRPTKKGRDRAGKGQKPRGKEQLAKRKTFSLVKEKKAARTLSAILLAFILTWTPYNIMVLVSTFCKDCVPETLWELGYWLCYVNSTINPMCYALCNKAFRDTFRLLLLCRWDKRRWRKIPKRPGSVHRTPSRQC
- Protocol text: Agonist activity at muscarinic M1 receptor (unknown origin) at 1 uM by calcium mobilization assay
- Assay type: functional
Endpoint: Activity (%)

In [3]: df
Out[3]:
                               given_smiles                                 tested_on  measured_value
0  CCOC(=O)N1CCC(CN2CCC3(CC2)CC(=O)N(CC)c2ncccc23)CC1  Muscarinic acetylcholine receptor M1 (Homo sapiens) (UniProt P11229)              91
1  CCOC(=O)N1CCC(CN2CCC3(CC2)CN(CC)c2ncccc23)CC1  Muscarinic acetylcholine receptor M1 (Homo sapiens) (UniProt P11229)              34
2  CCOC(=O)N1CCC(CN2CCC3(CC2)CN(C(=O)N(CC)CC)c2ncccc23)CC1  Muscarinic acetylcholine receptor M1 (Homo sapiens) (UniProt P11229)              52
3  CCNC(=O)N1CC2(CCN(CC3CCN(C(=O)OCC)CC3)CC2)c2cccnc21  Muscarinic acetylcholine receptor M1 (Homo sapiens) (UniProt P11229)              55

* * *

- Tested on: Muscarinic acetylcholine receptor M4 (Homo sapiens) (UniProt P08173)
- Sequence (P08173 whole entry): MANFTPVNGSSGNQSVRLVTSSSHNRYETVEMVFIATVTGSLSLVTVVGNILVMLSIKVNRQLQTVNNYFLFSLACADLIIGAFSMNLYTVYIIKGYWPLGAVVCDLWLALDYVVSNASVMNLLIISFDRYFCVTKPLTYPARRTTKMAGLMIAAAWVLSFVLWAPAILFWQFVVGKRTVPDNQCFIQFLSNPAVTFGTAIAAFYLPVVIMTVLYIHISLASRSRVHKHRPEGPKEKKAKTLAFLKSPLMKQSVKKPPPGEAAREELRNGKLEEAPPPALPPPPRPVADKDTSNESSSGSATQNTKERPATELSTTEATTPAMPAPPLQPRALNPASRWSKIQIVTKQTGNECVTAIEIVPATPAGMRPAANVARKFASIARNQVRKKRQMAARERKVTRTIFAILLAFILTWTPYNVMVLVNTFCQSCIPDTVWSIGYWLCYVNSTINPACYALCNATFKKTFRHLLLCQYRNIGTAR
- Protocol text: Agonist activity at muscarinic M4 receptor (unknown origin) at 0.3 uM by calcium mobilization assay
- Assay type: functional
Collected Activity values appear next to each entry.
Endpoint: Activity (%)

>>> df
                               given_smiles  endpoint  measured_value
0  CCOC(=O)N1CCC(CN2CCC3(CC2)CN(C(=O)NC)c2ncccc23)CC1  Activity              98
1  CCOC(=O)N1CCC(CN2CCC3(CC2)CN(C(=O)N(C)C)c2ncccc23)CC1.O=C(O)/C=C/C(=O)O  Activity             118
2  CCOC(=O)N1CCC(CN2CCC3(CC2)CN(C(N)=O)c2ncccc23)CC1  Activity             103
3  CCOC(=O)N1CCC(CN2CCC3(CC2)CN(C(=O)N2CCC2)c2ncccc23)CC1  Activity              29
4  CCOC(=O)N1CCC(CN2CCC3(CC2)CN(S(C)(=O)=O)c2ncccc23)CC1  Activity              88
5  CCOC(=O)N1CCC(CN2CCC3(CC2)CN(C(=O)N2CCCC2)c2ncccc23)CC1  Activity              10

* * *

- Tested on: UniProt:P08912
- Sequence (P08912 whole entry): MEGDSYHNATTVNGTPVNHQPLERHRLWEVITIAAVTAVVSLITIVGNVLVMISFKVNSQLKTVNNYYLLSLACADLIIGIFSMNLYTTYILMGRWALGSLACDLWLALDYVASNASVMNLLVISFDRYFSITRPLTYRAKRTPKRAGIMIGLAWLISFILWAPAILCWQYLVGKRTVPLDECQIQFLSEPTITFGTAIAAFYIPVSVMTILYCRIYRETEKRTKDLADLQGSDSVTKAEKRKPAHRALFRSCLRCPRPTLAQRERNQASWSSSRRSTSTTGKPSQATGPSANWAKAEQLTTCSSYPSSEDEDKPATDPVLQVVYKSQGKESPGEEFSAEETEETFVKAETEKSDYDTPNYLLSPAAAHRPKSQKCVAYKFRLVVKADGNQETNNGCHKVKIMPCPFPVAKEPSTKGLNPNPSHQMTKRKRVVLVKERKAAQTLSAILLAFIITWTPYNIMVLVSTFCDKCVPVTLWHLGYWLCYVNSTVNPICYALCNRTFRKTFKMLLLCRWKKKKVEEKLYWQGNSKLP
- Protocol text: Agonist activity at muscarinic M5 receptor (unknown origin) at 10 uM by calcium mobilization assay
- Type: functional
Endpoint: Activity (%)

In [3]: df
Out[3]:
                               given_smiles  measured_value
0  CCOC(=O)N1CCC(CN2CCC3(CC2)CN(S(C)(=O)=O)c2ncccc23)CC1               3
1  CCOC(=O)N1CCC(CN2CCC3(CC2)CN(C(N)=O)c2ncccc23)CC1               8
2  CCOC(=O)N1CCC(CN2CCC3(CC2)CN(C(=O)N(C)C)c2ncccc23)CC1.O=C(O)/C=C/C(=O)O              11

* * *

- Protocol text: Cmax in rat at 0.25 mg/kg, iv and 2.5 mg/kg, po
- Assay type: ADME, organism-based
- Cond: in vivo
Endpoint: Cmax (ng/mL)

>>> print(df.to_string())
                               given_smiles  endpoint  unit_name  measured_value
0  CCOC(=O)N1CCC(CN2CCC3(CC2)CN(C(=O)N(C)C)c2ncccc23)CC1.O=C(O)/C=C/C(=O)O      Cmax      ng/mL             207

* * *

Collected Activity values appear next to each entry.
- Tested on: Muscarinic acetylcholine receptor M2 (Homo sapiens) (UniProt P08172)
- Sequence (whole entry): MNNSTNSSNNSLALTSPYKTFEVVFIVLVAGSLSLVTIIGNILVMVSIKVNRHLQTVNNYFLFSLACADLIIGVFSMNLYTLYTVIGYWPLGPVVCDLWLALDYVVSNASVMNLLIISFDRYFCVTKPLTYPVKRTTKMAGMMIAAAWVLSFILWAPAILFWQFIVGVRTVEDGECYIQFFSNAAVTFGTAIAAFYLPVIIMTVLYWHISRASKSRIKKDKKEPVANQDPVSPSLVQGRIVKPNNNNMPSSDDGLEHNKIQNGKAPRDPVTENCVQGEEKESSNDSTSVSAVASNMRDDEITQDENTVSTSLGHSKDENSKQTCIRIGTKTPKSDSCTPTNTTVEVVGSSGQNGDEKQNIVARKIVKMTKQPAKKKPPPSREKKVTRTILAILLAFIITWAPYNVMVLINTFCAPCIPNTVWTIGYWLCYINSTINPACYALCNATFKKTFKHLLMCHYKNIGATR
- Protocol text: Agonist activity at muscarinic M2 receptor (unknown origin) at 0.3 uM by calcium mobilization assay
- Assay type: functional
Endpoint: Activity

                               given_smiles                                 tested_on  measured_value
0  CCOC(=O)N1CCC(CN2CCC3(CC2)CN(C(=O)NC)c2ncccc23)CC1  Muscarinic acetylcholine receptor M2 (Homo sapiens) (UniProt P08172)              7%
1  CCOC(=O)N1CCC(CN2CCC3(CC2)CN(C(N)=O)c2ncccc23)CC1  Muscarinic acetylcholine receptor M2 (Homo sapiens) (UniProt P08172)             17%
2  CCOC(=O)N1CCC(CN2CCC3(CC2)CN(S(C)(=O)=O)c2ncccc23)CC1  Muscarinic acetylcholine receptor M2 (Homo sapiens) (UniProt P08172)             12%
3  CCOC(=O)N1CCC(CN2CCC3(CC2)CN(C(=O)N(C)C)c2ncccc23)CC1.O=C(O)/C=C/C(=O)O  Muscarinic acetylcholine receptor M2 (Homo sapiens) (UniProt P08172)             10%

* * *

- Protocol text: Half life in rat at 0.25 mg/kg, iv and 2.5 mg/kg, po
- Format: ADME, organism-based
- Cond: in vivo
Endpoint: half-life (min)

>>> print(df.to_string())
                               given_smiles  unit_name  measured_value
0  CCOC(=O)N1CCC(CN2CCC3(CC2)CN(C(=O)N(C)C)c2ncccc23)CC1.O=C(O)/C=C/C(=O)O        min              54

* * *

- Protocol text: Clearance in rat at 0.25 mg/kg, iv and 2.5 mg/kg, po
- Type: ADME, organism-based
- Cond: in vivo
Endpoint: clearance (mL/min/kg)

>>> print(df.to_string())
                               given_smiles  measured_value
0  CCOC(=O)N1CCC(CN2CCC3(CC2)CN(C(=O)N(C)C)c2ncccc23)CC1.O=C(O)/C=C/C(=O)O            28.4
1  CCOC(=O)N1CCC(CN2CCC3(CC2)OC(=O)Nc2ncccc23)CC1            17.5
2  CCOC(=O)N1CCC(CN2CCC3(CC2)OC(=O)N(C)c2ncccc23)CC1            71.6
3  CCOC(=O)N1CCC(CN2CCC3(CC2)CC(=O)N(CC)c2ncccc23)CC1            49.3

* * *

- Tested on: Muscarinic acetylcholine receptor M1 (Homo sapiens)
- Protocol text: Agonist activity at muscarinic M1 receptor (unknown origin) at 0.3 uM by calcium mobilization assay
- Type: functional
Endpoint: Activity (%)

>>> df
                               given_smiles  measured_value
0  CCOC(=O)N1CCC(CN2CCC3(CC2)CN(C(=O)NC)c2ncccc23)CC1              74
1  CCOC(=O)N1CCC(CN2CCC3(CC2)CN(C(N)=O)c2ncccc23)CC1              99
2  CCOC(=O)N1CCC(CN2CCC3(CC2)CN(S(C)(=O)=O)c2ncccc23)CC1              20
3  CCOC(=O)N1CCC(CN2CCC3(CC2)CN(C(=O)N(C)C)c2ncccc23)CC1.O=C(O)/C=C/C(=O)O              76
